test: patients with anti-drug antibodies; higher = more immunogenic
Is patients with anti-drug antibodies at least 5%? Then 1. If not, 0.

| protein | categoryLabel |
| --- | --- |
| unnamed (protein) chain 1: EVQLVQSGAEVKKPGESLKISCKGSGYSFSNYWIGWVRQMPGKGLEWMGIIDPSNSYTRYSPSFQGQVTISADKSISTAYLQWSSLKASDTAMYYCARWYYKPFDVWGQGTLVTVSS chain 2: QSVLTQPPSVSGAPGQRVTISCTGSSSNIGSGYDVHWYQQLPGTAPKLLIYGNSKRPSGVPDRFSGSKSGTSASLAITGLQSEDEADYYCASWTDGLSLVVFGGGTKLTVL | 1 |
| unnamed (protein) chain 1: QVQLQESGPGLVKPSETLSLTCAVSGGSISGGYGWGWIRQPPGKGLEWIGSFYSSSGNTYYNPSLKSQVTISTDTSKNQFSLKLNSMTAADTAVYYCVRDRLFSVVGMVYNNWFDVWGPGVLVTVSS chain 2: ESALTQPPSVSGAPGQKVTISCTGSTSNIGGYDLHWYQQLPGTAPKLLIYDINKRPSGISDRFSGSKSGTAASLAITGLQTEDEADYYCQSYDSSLNAQVFGGGTRLTVL | 0 |
| unnamed (protein) chain 1: ELQLQESGPGLVKPSETLSLTCTVSGGSISSGSYYWDWIRQPPGKGLEWIGNIYKSGSTYYNPSLKSRVTISVDTSKNQFSLKLSSVTAADTAVYYCARERGMHYMDVWGKGTTVTVSS chain 2: DIQMTQSPSSLSASVGDRVTITCRASQSINSYLNWYQQKPGKAPKLLIYAASSLQSGVPSRFSGSGSGTDFTLTISSLQPEDFATYYCQQQFDPPFTFGGGTKVEIK | 0 |
| unnamed (protein) chain 1: EVQLVESGGGVVQPGRSLRLSCSASGFIFSRYDMSWVRQAPGKGLEWVAYISHGGAGTYYPDSVKGRFTISRDNSKNTLFLQMDSLRPEDTGVYFCARGGVTKGYFDVWGQGTPVTVSS chain 2: DIQMTQSPSSLSASVGDRVTITCRASGNIHNYLTWYQQTPGKAPKLLIYNAKTLADGVPSRFSGSGSGTDYTFTISSLQPEDIATYYCQHFWSIPYTFGQGTKLQIT | 1 |
| unnamed (protein) chain 1: EVQLVESGGGLVQPGGSLRLSCAASGFNFNDYFMNWVRQAPGKGLEWVAQMRNKNYQYGTYYAESLEGRFTISRDDSKNSLYLQMNSLKTEDTAVYYCARESYYGFTSYWGQGTLVTVSS chain 2: DIQMTQSPSSLSASVGDRVTITCQASQDIGISLSWYQQKPGKAPKLLIYNANNLADGVPSRFSGSGSGTDFTLTISSLQPEDFATYYCLQHNSAPYTFGQGTKLEIK | 1 |
| unnamed (protein) chain 1: QVQLVESGGGVVQPGRSLRLSCAASGFTFSSFGMHWVRQAPGKGLEWVAYISSGSFTIYYADSVKGRFTISRDNSKNTLYLQMNSLRAEDTAVYYCARMRKGYAMDYWGQGTLVTVSS chain 2: DVVMTQSPLSLPVTLGQPASISCRSSQIIIHSDGNTYLEWFQQRPGQSPRRLIYKVSNRFSGVPDRFSGSGSGTDFTLKISRVEAEDVGVYYCFQGSHVPHTFGQGTKVEIK | 0 |
| unnamed (protein) chain 1: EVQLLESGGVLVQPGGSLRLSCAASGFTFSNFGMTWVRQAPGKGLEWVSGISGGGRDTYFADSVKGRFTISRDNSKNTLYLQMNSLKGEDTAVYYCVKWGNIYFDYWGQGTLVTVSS chain 2: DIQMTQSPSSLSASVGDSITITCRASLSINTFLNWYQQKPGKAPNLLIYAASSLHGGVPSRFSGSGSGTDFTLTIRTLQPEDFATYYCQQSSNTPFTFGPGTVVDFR | 0 |
| unnamed (protein) chain 1: EVQLVESGGGLVQPGGSLRLSCAVSGFSSTNYHVHWVRQAPGKGLEWMGVIWGDGDTSYNSVLKSRFTISRDTSKNTVYLQMNSLRAEDTAVYYCARQLTHYYVLAAWGQGTLVTVSS chain 2: DIQMTQSPSSLSASVGDRVTITCRASEDLYYNLAWYQRKPGKAPKLLIYDTYRLADGVPSRFSGSGSGTDYTLTISSLQPEDFASYYCQQYYKFPFTFGQGTKVEIK | 1 |
| unnamed (protein) chain 1: EVQLVESGGGLVQPGGSLRLSCAASGYTFIDYYMNWVRQAPGKGLEWVGDINLDNSGTHYNQKFKGRFTISRDKSKNTAYLQMNSLRAEDTAVYYCAREGVYHDYDDYAMDYWGQGTLVTVSS chain 2: DIQMTQSPSSLSASVGDRVTITCRTSQSLVHINAITYLHWYQQKPGKAPKLLIYRVSNRFSGVPSRFSGSGSGTDFTLTISSLQPEDFATYYCGQSTHVPLTFGQGTKVEIK | 0 |
| unnamed (protein) chain 1: EVQLVESGGGLVQPGGSLRLSCAASGYSFTGYYIHWVRQAPGKGLEWVARVIPNAGGTSYNQKFKGRFTLSVDNSKNTAYLQMNSLRAEDTAVYYCAREGIYWWGQGTLVTVSS chain 2: DIQMTQSPSSLSASVGDRVTITCRSSQSLVHSNGNTFLHWYQQKPGKAPKLLIYTVSNRFSGVPSRFSGSGSGTDFTLTISSLQPEDFATYFCSQTTHVPWTFGQGTKVEIK | 0 |
